In this section we review reported cell viability values for a set of compounds.
System: P12-Ichikawa
assay procedure: cell viability relative to DMSO control; higher = less cytotoxic
experimental conditions: RPMI 5 mM glucose + 10% FBS; 48 h; 5.12 µM
Form entry: value (%) — number only.

Answered examples (3):
compound: CN(C)CCN(Cc1ccc(Cl)cc1)c1ccccn1.Cl
cell viability [%]: 90.4
//
compound: COC1(C[S+]([O-])c2ccccc2)CCN(CCc2c[nH]c3ccc(F)cc23)CC1 (stereo not given)
cell viability [%]: 115
//
compound: CN(C)c1ccc2cc(C(=O)N[C@@H](CCCNC(=N)CCl)C(=O)NCc3ccccc3)ccc2c1
cell viability [%]: 104

Problem: Request the reported cell viability associated with O=C(CCCCCCC(=O)Nc1ccccc1)NO
Result: 23.3

Problem: Cool, now COc1cc(OC)c(NC(=O)Nc2cc(C)on2)cc1Cl
Result: 107
